Target protein (sequence): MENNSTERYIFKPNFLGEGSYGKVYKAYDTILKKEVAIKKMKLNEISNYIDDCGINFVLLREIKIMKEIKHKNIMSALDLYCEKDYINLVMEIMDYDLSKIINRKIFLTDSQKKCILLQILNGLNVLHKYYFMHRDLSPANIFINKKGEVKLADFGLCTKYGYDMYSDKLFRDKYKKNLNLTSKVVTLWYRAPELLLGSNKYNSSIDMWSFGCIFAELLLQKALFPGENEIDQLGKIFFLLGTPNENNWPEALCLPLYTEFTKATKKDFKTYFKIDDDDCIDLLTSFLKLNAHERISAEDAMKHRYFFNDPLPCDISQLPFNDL
We begin with IC50 values for the protein given by its sequence, as collected from the published literature.
Test Readout: IC50 (µM)

• Cc1ccc(Cl)cc1NS(=O)(=O)c1cc(Cl)ccc1Cl = 45.4
• Cc1ccc(N(C(=O)CCl)S(=O)(=O)c2c(Cl)sc(Cl)c2Cl)cc1 = 40.1
• O=Nc1c(-c2c(O)[nH]c3ccccc23)[nH]c2ccccc12 = 30
• O=C1Nc2ccccc2/C1=C\C(=O)c1ccccc1 = 4
• Cc1ccc(NS(=O)(=O)c2ccc(Br)cc2)cc1Cl = 15.9
• COc1ccc2c(c1)/C(=C1/SC(=S)NC1=O)C(=O)N2 = 17.1
• O=C(NNC(=O)c1ccccc1F)c1ccc2ccccc2c1 = 0.4
• CCN(CC)CCCC(C)Nc1ccnc2cc(Cl)ccc12 (stereo unspecified) = 150
• COc1cc2ncnc(Nc3cccc(O)c3)c2cc1OC = 168
• Cc1cc(Cl)ccc1NS(=O)(=O)c1cc(Cl)ccc1Cl = 11

* * *

pIC50: −log10 of the molar value.
We begin with pIC50 values for Protein kinase Pfmrk (Plasmodium falciparum, UniProt P90584), as collected from the published literature.
Test Readout: pIC50

• Cc1cc(Cl)ccc1NC(=O)c1cccc([N+](=O)[O-])c1 = 4.16
• O=C(N=C(S)Nc1cc([N+](=O)[O-])ccc1O)c1ccc(Cl)cc1Cl = 5.00
• CCOC(=O)c1cc([N+](=O)[O-])ccc1Cl = 4.06
• O=C1Nc2ccccc2/C1=C\c1c(Cl)cccc1Cl = 4.77
• O=C(/C=C/c1ccccn1)c1ccc([N+](=O)[O-])cc1 = 4.74
• NS(=O)(=O)c1cc([N+](=O)[O-])c(Cl)s1 = 4.76
• O=c1c(-c2ccc(O)cc2)coc2cc(O)cc(O)c12 = 4.03
• O=S(=O)(Nc1cccc(C(F)(F)F)c1)c1ccc(Cl)cc1 = 4.88
• O=C1Nc2ccccc2/C1=C/C(=O)c1ccc(Br)cc1 = 5.46
• COc1ccc(C(=O)/C=C/c2ccc3ccccc3c2)c(OC)c1OC = 4.72
• O=S(=O)(Nc1ccc(Cl)cc1SC(Cl)(Cl)Cl)c1cc(Cl)sc1Cl = 4.71
• O=C1Nc2ccccc2/C1=C\c1ccc(C(F)(F)F)cc1 = 3.86

* * *

Sequence of the target: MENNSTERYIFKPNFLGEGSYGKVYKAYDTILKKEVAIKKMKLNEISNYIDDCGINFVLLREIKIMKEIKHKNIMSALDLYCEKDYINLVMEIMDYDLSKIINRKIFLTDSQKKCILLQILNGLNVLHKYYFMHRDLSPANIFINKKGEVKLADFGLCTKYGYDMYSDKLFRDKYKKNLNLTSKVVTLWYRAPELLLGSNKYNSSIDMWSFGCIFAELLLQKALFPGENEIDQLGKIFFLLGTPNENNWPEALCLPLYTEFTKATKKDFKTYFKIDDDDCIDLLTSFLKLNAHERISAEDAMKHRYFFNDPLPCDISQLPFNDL
We begin with IC50 values for the protein given by its sequence, as collected from the published literature.
Test Readout: IC50

• O=S(=O)(c1cccc2c(Cl)cccc12)N1CCCNCC1 = > 500 µM
• CN1C(=O)/C(=C\C(=O)c2ccc(Br)cc2)c2ccccc21 = 29 µM
• O=C1Nc2ccccc2/C1=C\c1ccc(O)cc1 = > 42 µM
• C/N=C/c1c(O)[nH]c2ccccc12 = > 57 µM
